Assay: PK study of single ascending oral doses in healthy volunteers (Example 7)
Assay type: in vivo, human
Conditions: male, human, plasma; single oral dose 200 mg, fasted, n = 12, Mean(SD)
REPORTED METRIC: AUC(0-t) (ng·h/mL)
Please state the figure in ng·h/mL; there is no need to write the unit.

Task: Field request: AUC(0-t) | item: Cc1ccc(=O)n(-c2ccc(O)cc2)c1 [Hydronidone, N-(4-hydroxyphenyl)-5-Methyl-2-pyridone]
Result: 1360

---

Test: PK study of single ascending oral doses in healthy volunteers (Example 7)
Type: in vivo, human
Details: male, human, plasma; single oral dose 800 mg, fasted, healthy Chinese subjects, n = 12, Mean(SD); read-out: AUCINE_pred
REPORTED METRIC: AUC (ng·h/mL)
Please state the figure in ng·h/mL; there is no need to write the unit.

Task: Field request: AUC | item: Cc1ccc(=O)n(-c2ccc(O)cc2)c1 [Hydronidone, N-(4-hydroxyphenyl)-5-Methyl-2-pyridone]
Result: 6310

---

Test: PK study of single ascending oral doses in healthy volunteers (Example 7)
Type: in vivo, human
Settings: male, human, plasma and urine; single oral dose 200 mg, fasted, n = 12, Mean(SD)
REPORTED METRIC: CL renal (mL/min)
Please state the figure in mL/min; there is no need to write the unit.

Task: Field request: CL renal | item: Cc1ccc(=O)n(-c2ccc(O)cc2)c1 [Hydronidone, N-(4-hydroxyphenyl)-5-Methyl-2-pyridone]
Result: 14.7

---

Assay: PK study of single ascending oral doses in healthy volunteers (Example 7)
Format: in vivo, human
Conditions: male, human, plasma; single oral dose 200 mg, fasted, n = 12, Mean(SD)
Description: This was randomized, open-label, 4-period, crossover PK study of single ascending oral doses of Hydronidone in healthy volunteers. Ascending single oral doses of 200 mg, 400 mg, 600 mg and 800 mg of Hydronidone were given to 12 eligible, healthy male Chinese subjects, 26-38 years of age, satisfying all inclusion and exclusion criteria, and randomly divided into four dose groups, 3 subjects per group, under fasted conditions. […]
REPORTED METRIC: Cmax (ng/mL)
Please state the figure in ng/mL; there is no need to write the unit.

Task: Field request: Cmax | item: Cc1ccc(=O)n(-c2ccc(O)cc2)c1 [Hydronidone, N-(4-hydroxyphenyl)-5-Methyl-2-pyridone]
Result: 715

---

Test: PK study of single ascending oral doses in healthy volunteers (Example 7)
Assay type: in vivo, human
Settings: male, human, plasma; single oral dose 800 mg, fasted, n = 12, Mean(SD)
REPORTED METRIC: Cmax (ng/mL)
Please state the figure in ng/mL; there is no need to write the unit.

Task: Field request: Cmax | item: Cc1ccc(=O)n(-c2ccc(O)cc2)c1 [Hydronidone, N-(4-hydroxyphenyl)-5-Methyl-2-pyridone]
Result: 2960

---

Test: PK study of single ascending oral doses in healthy volunteers (Example 7)
Type: in vivo, human
Settings: male, human, plasma and urine; single oral dose 600 mg, fasted, n = 12, Mean(SD)
Protocol: This was randomized, open-label, 4-period, crossover PK study of single ascending oral doses of Hydronidone in healthy volunteers. Ascending single oral doses of 200 mg, 400 mg, 600 mg and 800 mg of Hydronidone were given to 12 eligible, healthy male Chinese subjects, 26-38 years of age, satisfying all inclusion and exclusion criteria, and randomly divided into four dose groups, 3 subjects per group, under fasted conditions. […]
REPORTED METRIC: CL renal

Task: Field request: CL renal | item: Cc1ccc(=O)n(-c2ccc(O)cc2)c1 [Hydronidone, N-(4-hydroxyphenyl)-5-Methyl-2-pyridone]
Result: 9.83 mL/min
